Tested on: HUVEC/MSC spheroids viability
Experiment: Human HUVEC/MSC cell line growth inhibition [KRAS2];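 also: percent of DMSO vehicle control luminescence so 100% = untreated viability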
Settings: second compound 0.0316 µM; first compound 3.16 µM; active compounds read low
Excerpt: Multicellular complex tumor spheroid response to RAS pathway inhibitors in combination with a targeted agents in patient-derived cell lines with oncogenic KRAS variants from multiple cancer types A high-throughput screen of multi-cell type tumor spheroids was designed to identify active combinations of targeted small molecules and KRAS pathway inhibitors. […] Compounds. […] If the clinical Cmax for an agent had not been determined, the highest concentration tested was 10 microM. […]
result.type: viability, T/C (%)
Quick reminder: number only, in %, skip the unit.

// viability, T/C lookup, key: CC(C)NCC(C(=O)N1CCN(c2ncnc3c2C(C)CC3O)CC1)c1ccc(Cl)cc1 (centres undefined) + C=CC(=O)N1CCN(c2nc(=O)n(-c3c(C)ccnc3C(C)C)c3nc(-c4c(O)cccc4F)c(F)cc23)C(C)C1
52.4

// viability, T/C lookup, key: COc1cc2nccc(Oc3ccc(NC(=O)C4(C(=O)Nc5ccc(F)cc5)CC4)cc3)c2cc1OC + COc1cc2nc(C)nc(NC(C)c3cc(N)cc(C(F)(F)F)c3)c2cc1OC1CCOC1
73.5

// viability, T/C lookup, key: O=C(c1cc(Cc2n[nH]c(=O)c3ccccc23)ccc1F)N1CCN(C(=O)C2CC2)CC1 + CNCc1ccccc1-c1csc(C(C)Nc2nc(C)nc3cc(OC)c(OC)cc23)c1
80.3

// viability, T/C lookup, key: CC1OCC2(CCN(c3cnc(Sc4ccnc(N)c4Cl)c(N)n3)CC2)C1N (centres undefined) + CNCc1ccccc1-c1csc(C(C)Nc2nc(C)nc3cc(OC)c(OC)cc23)c1
83.1

// viability, T/C lookup, key: CCNC(=O)CC1N=C(c2ccc(Cl)cc2)c2cc(OC)ccc2-n2c(C)nnc21 (centres undefined) + C=CC(=O)N1CCN(c2nc(=O)n(-c3c(C)ccnc3C(C)C)c3nc(-c4c(O)cccc4F)c(F)cc23)C(C)C1
120

// viability, T/C lookup, key: COc1cc2nccc(Oc3ccc(NC(=O)C4(C(=O)Nc5ccc(F)cc5)CC4)cc3)c2cc1OC + C=CC(=O)N1CCN(c2nc(=O)n(-c3c(C)ccnc3C(C)C)c3nc(-c4c(O)cccc4F)c(F)cc23)C(C)C1
77.2

// viability, T/C lookup, key: O=C(c1cc(Cc2n[nH]c(=O)c3ccccc23)ccc1F)N1CCN(C(=O)C2CC2)CC1 + CC1OCC2(CCN(c3cnc(Sc4ccnc(N)c4Cl)c(N)n3)CC2)C1N
101

// viability, T/C lookup, key: COC(=O)c1ccc2c(C(=Nc3ccc(N(C)C(=O)CN4CCN(C)CC4)cc3)c3ccccc3)c(O)[nH]c2c1 + CNCc1ccccc1-c1csc(C(C)Nc2nc(C)nc3cc(OC)c(OC)cc23)c1
37.9

// viability, T/C lookup, key: Cn1nccc1Nc1nccc(-c2cc3c(s2)C(C)(C)N(CCN2CCOCC2)C3=O)n1 + CC1OCC2(CCN(c3cnc(Sc4ccnc(N)c4Cl)c(N)n3)CC2)C1N
34.5

// viability, T/C lookup, key: Cn1nccc1Nc1nccc(-c2cc3c(s2)C(C)(C)N(CCN2CCOCC2)C3=O)n1 + C=CC(=O)N1CCN(c2nc(=O)n(-c3c(C)ccnc3C(C)C)c3nc(-c4c(O)cccc4F)c(F)cc23)C(C)C1
47.7

// viability, T/C lookup, key: COC(=O)c1ccc2c(C(=Nc3ccc(N(C)C(=O)CN4CCN(C)CC4)cc3)c3ccccc3)c(O)[nH]c2c1 + CC1OCC2(CCN(c3cnc(Sc4ccnc(N)c4Cl)c(N)n3)CC2)C1N
38.8

// viability, T/C lookup, key: COC(=O)c1ccc2c(C(=Nc3ccc(N(C)C(=O)CN4CCN(C)CC4)cc3)c3ccccc3)c(O)[nH]c2c1 + C=CC(=O)N1CCN(c2nc(=O)n(-c3c(C)ccnc3C(C)C)c3nc(-c4c(O)cccc4F)c(F)cc23)C(C)C1
51.7

// viability, T/C lookup, key: CC(C)NCC(C(=O)N1CCN(c2ncnc3c2C(C)CC3O)CC1)c1ccc(Cl)cc1 (centres undefined) + COc1cc2nc(C)nc(NC(C)c3cc(N)cc(C(F)(F)F)c3)c2cc1OC1CCOC1
48

// viability, T/C lookup, key: COc1cc(Nc2ncc3c(n2)-c2ccc(Cl)cc2C(c2c(F)cccc2OC)=NC3)ccc1C(=O)O + COc1cc2nc(C)nc(NC(C)c3cc(N)cc(C(F)(F)F)c3)c2cc1OC1CCOC1
111

All figures here come from PubChem BioAssay AID2060912.
